Hey, just so you know, these numbers are from the supplement of paper PMC6757056.

# normalized RNA/DNA level with ligand (log10) listing for each entry below
B1: library; a variant is named by its letters at N, in order (parent)
chain: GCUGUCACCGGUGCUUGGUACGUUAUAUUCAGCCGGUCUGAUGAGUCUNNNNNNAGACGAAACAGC

Variants of: B1
Assay: normalized RNA/DNA level with ligand (relative to sTRSVctl = 100) (log10 (% of sTRSVctl)); HEK293T overexpressing SLC46A1; ligand concentration (+) RNA-Seq: 6 mM; higher = less ribozyme self-cleavage, higher mRNA level
Settings: with (6R,S)-folinic acid; ligand present: yes
Lab note: write the figure by itself, no unit.

>  <mutationNotation>
AACGUG

>  <obsValue>
1.98

$$$$
>  <mutationNotation>
CCCUUA

>  <obsValue>
2.08

$$$$

Next item in the queue.
(Q) State the recorded normalized RNA/DNA level with ligand (log10) for this entry: "CAGAUA"
(A) 1.97
